assay: HCT116 colon cancer cell growth inhibition, primary screen, CellTiter-Glo luminescence, NPC library (AID 1117342); settings: at 20 µM (top of the series)
Calls of active or inactive are those of the source.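 Rule for the calls: active = compounds that lower survival of HCT116 colon cancer cells in the luminescence readout, no numeric limit stated; inactive = the rest.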
Assign a class; possible classes are T = active, F = inactive

CCCCN(CCCC)C(C(N)=O)c1ccc(OC)cc1 (stereo not drawn); F
CO/N=C(/C(=O)N[C@@H]1C(=O)N2C(C(=O)[O-])=C(C[n+]3ccn4ncccc43)CS[C@H]12)c1nsc(N)n1; F
CC(C)=CCC/C(C)=C/CC/C(C)=C/C(=O)OCC(=O)[C@@]1(O)CC[C@H]2[C@@H]3CCC4=CC(=O)C=C[C@]4(C)[C@H]3[C@@H](O)C[C@@]21C; T
Cc1cccc(N(C)C(=S)Oc2ccc3c(c2)C2CCC3C2)c1 (stereo not drawn); T
Cn1c(=O)c2[nH]cnc2n(C)c1=O; F

Task: Hi, sorry to bother you, what did the test record for CC(C)c1cc2c(cc1S(=O)(=O)O)[C@@]1(C)CCC[C@@](C)(C(=O)O)[C@@H]1CC2 ?
Result: F

Task: Hi, sorry to bother you, what did the test record for CC(NN)c1ccccc1 (stereo not drawn) ?
Result: F

Task: Hi, sorry to bother you, what did the test record for COc1cc(OC)nc(O[C@H](C(=O)O)C(OC)(c2ccccc2)c2ccccc2)n1 ?
Result: F

Task: Hi, sorry to bother you, what did the test record for CC(C)NCC(O)c1ccc(O)c(O)c1 (stereo not drawn) ?
Result: F

Task: Hi, sorry to bother you, what did the test record for CC(C)(C)c1cc(C=O)cc(C(C)(C)C)c1O ?
Result: F

====

assay: inhibition of endothelial tube formation, primary screen, imaging, VEGF stimulated, CD31 staining, tube area, NPC library (AID 1117340); settings: VEGF-stimulated ADSC/ECFC co-culture, at 10 µM
The source made the active and inactive calls.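 How the source made its calls: active means compound that reduces growth-factor-driven endothelial tube area in a mixed cell culture, no cutoff stated; inactive means the rest.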
Assign a class; possible classes are yes (1) (active), no (0) (inactive)

Here are 2 molecules together with their reported answers.
N=C(N)c1ccc(OCCCOc2ccc(C(=N)N)cc2)cc1; no (0)
COc1cccc2c1C(=O)c1c(O)c3c(c(O)c1C2=O)C[C@@](O)(C(=O)CO)C[C@@H]3O[C@H]1C[C@H](N)[C@H](O[C@@H]2CCCCO2)[C@H](C)O1; yes (1)

Task: Hi, sorry to bother you, what did the test record for O=c1[nH]c(=O)n([C@H]2O[C@H](CO)[C@@H](O)[C@@H]2O)cc1/C=C\Br ?
Result: no (0)

====

We begin with a simple list: items and their reported fluorescence ratio.
experiment: fluorescence interference in NS3h assay format, artefact control for HCV NS3 helicase inhibitor project, biochemical, NIH Clinical Collection (AID 743272); settings: fluorescence interference counterscreen, stronger effect = lower value;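 note: HCV NS3 helicase with a Cy5 labelled single stranded DNA probe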
The response must contain the number and no unit.

CC1=C(CC(=O)O)c2cc(F)ccc2/C1=C\c1ccc(S(C)=O)cc1 (centres undefined); 1.01
C#C[C@]1(O)CC[C@H]2[C@@H]3CCC4=Cc5oncc5C[C@]4(C)[C@H]3CC[C@@]21C; 1.01
CC1(C)O[C@@H]2C[C@H]3[C@@H]4C[C@H](F)C5=CC(=O)C=C[C@]5(C)[C@H]4[C@@H](O)C[C@]3(C)[C@]2(C(=O)CO)O1; 0.99

Task: # get_value(readout='fluorescence ratio', item= CN1C(C(=O)Nc2ccccn2)=C(O)c2ccccc2S1(=O)=O )
Result: 0.98
